// data source = paper PMC8625693

Target: CYP3A4 (Homo sapiens, UniProt P08684)
Construct: purchased Corning, Glendale, AZ, USA
Sequence (P08684 2-503 limits assumed): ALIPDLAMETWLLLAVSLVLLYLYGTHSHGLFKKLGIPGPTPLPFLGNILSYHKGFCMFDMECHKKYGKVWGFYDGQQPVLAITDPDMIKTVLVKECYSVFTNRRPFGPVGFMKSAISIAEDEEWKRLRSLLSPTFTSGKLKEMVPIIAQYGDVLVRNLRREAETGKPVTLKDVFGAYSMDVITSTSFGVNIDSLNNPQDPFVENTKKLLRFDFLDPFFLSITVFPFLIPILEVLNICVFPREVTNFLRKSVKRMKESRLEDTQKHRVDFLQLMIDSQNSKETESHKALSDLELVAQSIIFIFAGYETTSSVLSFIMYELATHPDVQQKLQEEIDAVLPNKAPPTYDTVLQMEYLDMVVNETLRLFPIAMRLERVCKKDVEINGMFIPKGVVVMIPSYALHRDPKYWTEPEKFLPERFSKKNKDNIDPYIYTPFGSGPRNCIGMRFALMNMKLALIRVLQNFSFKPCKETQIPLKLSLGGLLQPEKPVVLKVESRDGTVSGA
Assay: Cytochrom P450 3A4 inhibition assay (P450-Glo, luciferin-IPA)
Format: in vitro ADME
Conditions: recombinant human CYP3A4 Supersomes (+ oxidoreductase + b5), probe luciferin-IPA, stock solutions diluted to 20 µM, pH 7.4, triplicate
Experimental: The CYP3A4 inhibition assay was performed using 96-well White Plates (Greiner Bio-One) at a pH of 7.4. […] Stock solutions were further diluted to a final concentration of 20 µM using water (HPLC grade). The luciferin IPA stock solution (3 mM) was diluted to a final concentration of 0.3 mM using water (HPLC grade). […] Luminescence was measured by a SpectraMax M3 UV plate reader (Molecular Devices). […] The CYP3A4 inhibition (%) was calculated from the RLU.
measured-attribute: inhibition at 10 min, 20 µM
Your answer should be a number followed by the unit of measure.

CC(C)(C)OC(=O)N1CCN(c2ccc(NC(=O)c3cccc(C(F)(F)F)c3Oc3ccccc3)cc2)CC1 ... 80%
O=CN1CCN(c2ccccc2NC(=O)c2cccc(C(F)(F)F)c2Oc2ccc(F)cc2)CC1 ... 82%

Please find the next molecule below.
Return reported inhibition at 10 min, 20 µM. Input molecule: CC(C)(C)OC(=O)N1CCN(c2ccccc2NC(=O)c2cccc(C(F)(F)F)c2Oc2ccc(F)cc2)CC1
87%

----------
system: P. falciparum NF54; assay: In vitro microplate assay against P. falciparum NF54 (3H-hypoxanthine incorporation, erythrocytic stages); format: cell-based, Plasmodium falciparum; conditions: Plasmodium falciparum, NF54, chloroquine-sensitive strain NF54, blood stages; average of four determinations; read-out: P.f. NF54 IC50
List of IC50 values.

As a guide, the following entries are already answered.
CC(C)(C)OC(=O)N1CCN(c2ccccc2NC(=O)c2cccc(C(F)(F)F)c2Oc2ccccc2)CC1 ... 1.01 to 1.15 µM
Nc1cccc(NC(=O)c2cccc(C(F)(F)F)c2Oc2ccc(F)cc2)c1 ... 51.5 to 51.9 µM
CC(=O)Nc1ccc(Oc2c(C(=O)Nc3ccccc3N3CCN(C(=O)OC(C)(C)C)CC3)cccc2C(F)(F)F)cc1 ... 1.01 to 1.15 µM
CC(C)(C)C(=O)N1CCN(c2ccccc2NC(=O)c2cccc(C(F)(F)F)c2Oc2ccc(F)cc2)CC1 ... 0.617 to 0.659 µM
O=CN1CCN(c2ccccc2NC(=O)c2cccc(C(F)(F)F)c2Oc2ccc(F)cc2)CC1 ... 6.58 to 15.6 µM

Please find the next compound below.
Return reported IC50. Input compound: O=C(Nc1ccccc1)c1cccc(C(F)(F)F)c1Oc1ccc(F)cc1
9.33 to 21.3 µM

----------
List of Papp at 5 h, 200 µM values.
experiment: Parallel artificial membrane permeability assay (PAMPA); conditions: pH 7.4
Just the number in ×10⁻⁶ cm/s, nothing appended.

CC(C)(C)OC(=O)N1CCN(c2cccc(NC(=O)c3cccc(C(F)(F)F)c3Oc3ccc(F)cc3)c2)CC1 ... 6.17
Nc1ccc(NC(=O)c2cccc(C(F)(F)F)c2Oc2ccc(F)cc2)cc1 ... 12.9
CC(C)(C)OC(=O)Nc1ccccc1NC(=O)c1cccc(C(F)(F)F)c1Oc1ccc(F)cc1 ... 8.72

Please find the next compound below.
Return reported Papp at 5 h, 200 µM. Input compound: O=CN1CCN(c2ccccc2NC(=O)c2cccc(C(F)(F)F)c2Oc2ccc(F)cc2)CC1
1.05

----------
experiment: In vitro cytotoxicity with L-6 cells (Alamar Blue); format: cell-based, rat; conditions: rat, Cytotoxicity L-6 Cells IC50
measured-attribute: IC50 at 72 h

As a guide, the following entries are already answered.
CC(C)(C)C(=O)N1CCN(c2cccc(NC(=O)c3cccc(C(F)(F)F)c3Oc3ccc(F)cc3)c2)CC1 [Compound 38] ... 78 to 99.6 µM
O=CN1CCN(c2ccccc2NC(=O)c2cccc(C(F)(F)F)c2Oc2ccc(F)cc2)CC1 [Compound 18] ... 31.8 to 35.4 µM
CC(C)(C)C(=O)N1CCN(c2ccc(NC(=O)c3cccc(C(F)(F)F)c3Oc3ccc(F)cc3)cc2)CC1 [Compound 39] ... 78 to 99.6 µM
NC(=O)N1CCN(c2ccccc2NC(=O)c2cccc(C(F)(F)F)c2Oc2ccc(F)cc2)CC1 [Compound 21] ... 31.8 to 35.4 µM
O=C(Nc1ccccc1)c1cccc(C(F)(F)F)c1Oc1ccc(F)cc1 [Compound 12] ... 129 to 202 µM

Return reported IC50 at 72 h. Input compound: CC(C)(C)C(=O)N1CCN(c2ccccc2NC(=O)c2cccc(C(F)(F)F)c2Oc2ccccc2)CC1 [Compound 56]
185 to 190 µM

Return reported IC50 at 72 h. Input compound: CC(C)(C)C(=O)N1CCN(c2ccccc2NC(=O)c2cccc(C(F)(F)F)c2Oc2ccc(F)cc2)CC1 [Compound 19]
185 to 190 µM
